Assay: NCI Yeast Anticancer Drug Screen. Data for the mlh1 rad18 strain (AID 175)
Conditions: S. cerevisiae mlh1 rad18 strain growth inhibition; at 50.0 µM; stronger effect = higher value
Experimental: Growth inhibition of yeast strains with defined genetic alterations is measured as a screen for potential anti-cancer activity. Selected strains with alterations in DNA damage repair or cell cycle control were exposed to compounds and growth inhibition was measured relative to vehicle treated controls. The strain used in this assay is mlh1 rad18
Compounds without any hit were thinned out: in the full panel of roughly 79,000, 15% have a hit.
readout: growth inhibition (%)

NCCSCCN : 8.15
CC1c2ccccc2-c2ccccc21 : 20.4
CC/C(=N\O)c1ccc2cc(Cl)c3ccccc3c2c1 : 31.9
COc1ccc(C(O)C2CC(=O)NN=C2C)cc1OC (stereo not given) : -1.7
CCCCCCCCCCCCCCCC[N+]1(CC)CCSCC1 : 97.8
COc1ccc(/C=C2/SC(=Nc3ccccc3)N(NC(=O)Cc3ccccc3)C2=O)c(OC)c1 : 1.9
CN(CCCO)CCCO : -0.85
CC(O)COC(C)c1ccccc1 (stereo not given) : 2.1
O=C(c1ccccc1)[C@H]1Nc2ccc(Cl)cc2[C@H]2CCC[C@@H]12 : -17.1
c1ccc(C2=NC(c3ccccc3)(c3ccccc3)N=C2c2ccccc2)cc1 : 2.5
CN(C)c1ccccc1N(C)C : -13
Cc1ccc(Cc2cc(=O)[nH]c(=S)[nH]2)cc1 : -3.35
NCCCn1[nH]c(=O)c2ncccc2c1=O : -18.7
CCOC(=O)C1=C(OC(OCC)C([Se]c2ccccc2)C(C)C)CCC1 (stereo not given) : 51
CN(C)c1ccc(N=Nc2ccc(S(=O)(=O)O)cc2)cc1.CN(C)c1ccc(N=Nc2ccc(S(=O)(=O)O)cc2)cc1.[NH-]C1CCCCC1[NH-].[Pt+2] : 3.55
CC(=O)CC(=O)NCCNC(=O)CC(C)=O : 8.85
Cc1ccc(/C=N/NC(=O)Cc2cccc3ccccc23)cc1 : 21.1
FC(F)(F)c1ccc(C2SCc3nc4ccccc4n32)cc1 (stereo not given) : 11.3
O=C1c2ccccc2C(=O)N1CCc1ccccn1 : -22.9
CC(=O)Nc1ccc(C(=O)NN2C(=O)C(Cl)C2c2ccc(Cl)cc2)cc1 (stereo not given) : -43.5
COC(=O)c1ccccc1NC(=O)Nc1ccc(SC)cc1 : 14.3
CCOC(=O)C1=C(c2ccccc2)NC(c2ccccc2)=C(C(=O)OCC)c2c1c(=O)cc[nH]c2=O : 2.35
CC(=O)C1C(=O)C(=O)N(c2ccc(S(N)(=O)=O)cc2)C1=O (stereo not given) : 8.05
CC(=O)N1Cc2c(nc[nH]c2=O)C1C (stereo not given) : 0.45
Cc1cc(Cl)c(Cl)cc1NC(=O)c1ccc(Cl)cc1Cl : 17.6

----------
assay: NCI Yeast Anticancer Drug Screen. Data for the cln2 rad14 strain (AID 165);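 further: 0% = growth equal to vehicle treated cultures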; settings: S. cerevisiae cln2 rad14 strain, at 50.0 µM, stronger effect = higher value
The panel holds about 79,000 compounds, 15% with a hit somewhere; the sample as a whole holds those more often.
Recorded growth inhibition, one value per entry.
readout: growth inhibition (%)

OCCCCC(c1ccc(O)cc1)c1ccc(O)cc1 : 25.1
O=C(CCCN1CCC2(CC1)NC(=O)c1ccccc1O2)c1ccc(F)cc1 : 48.9
CN(C)/C(N)=N\C(N)=Nc1cc2ccccc2c2ccccc12 : -23.2
N#CCC(=O)N/N=C(\C#N)c1ccccc1 : -51.9
O=C(CI)NCC(O)CNC(=O)CI : 27.6
COc1ccc(C=Nc2ccc(Cl)cc2)cc1 : -18.7
CC1(C)OB(O)OC1(C)C : 14.6
COC(=O)/C(=N\NC(C)(C)C)C(C(=O)C(=O)Nc1cc(C)ccc1C)c1nc2ccccc2[nH]c1=O (centres undefined) : 18.8
O=c1[nH]c2cc(Cl)ccc2nc1/C=C(\O)c1ccc(O)cc1 : 7.05
CCN(CC)CCOC(=O)c1ccc(N=Nc2cc(NC(C)=O)ccc2O)cc1 : 4.15
Cc1ccc2c(c1)C(c1ccccc1)(c1ccccc1)OC2=O : 7.95
CC(C)NC(=O)Oc1ccccc1C(=O)OCc1ccccc1 : -15.1
N#CCCOCCN1CCN(c2cccc(Cl)c2)CC1 : -2.6
COc1ccc(NS(=O)(=O)c2ccc(NCc3c4ccccc4nc4cc(Cl)ccc34)cc2)nn1 : -30.8
COC(C(=O)[O][Ge]([CH3])([CH3])[CH3])c1ccccc1 (centres undefined) : 31.4
CCCCCCCCCCCCCCC(=O)Cl : 8.2
NC(CSS(=O)(=O)c1ccccc1)C(=O)O (centres undefined) : 0.5
Cc1c(-c2ccccc2)[nH]n(C2=NCCN2)c1=O : -6.35
COCCCn1c(-c2ccc(Cl)cc2)nn2c(=O)c3ccccc3nc2c1=O : 10.2
CC(C)(O)C(O)(c1ccccc1)c1ccccc1 : 6.5
COc1ccc(-c2c(C(=O)O)cc(O)c3c(OC)c(OC)c(OC)cc23)cc1OC : -9.2
O=c1cc(C(Br)(Br)Br)[nH]c2ccccc12 : -5.7
NC(=O)NC(=O)CC1NC(=O)NC1=O (centres undefined) : 12.1
CC12CCC3c4ccc(OC(=O)C56C=CC(=O)C5C5C=CC6CC5)cc4CCC3C1CCC2=O (centres undefined) : 16.1

----------
test: NCI Yeast Anticancer Drug Screen. Data for the sgs1 mgt1 strain (AID 161);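 further: 0% = growth of cultures given vehicle only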; conditions: S. cerevisiae sgs1 mgt1 strain, at 50.0 µM, stronger effect = higher value
This is part of a sample that, as a whole, favours compounds with a hit. Of some 79,000 tested, about 15% had one in any assay.
readout: growth inhibition (%)

CCOC12CC(OC(=O)N1)C(C)C1OC1(C)C(OC(=O)C(C)N(C)C(C)=O)CC(=O)N(C)c1cc(cc(OC)c1Cl)C/C(C)=C/C=CC2OC (stereo not given) : -30.9
C/C(CC(=O)N(C(C)C)C(C)C)=N\NC(=O)c1ccncc1 : -18.9
NC(=O)c1cc(Br)ccc1O : 6.9
CN(C)Cc1cc(N=Nc2ccccc2)ccc1O : -12.4
O=[N+]([O-])C(/C=C(\Cl)[N+](=O)[O-])=C1Nc2ccccc2N1 : 57.2
O=c1[nH]c(=O)c2[nH]cnc2[nH]1 : 5.9
Cc1c(N=Nc2cccc(Cl)c2)c(-c2ccccc2)nn1C(N)=S : 96.8
COc1ccc2c(CCn3ccccc3=O)cccc2c1 : 7.55
CC1COC(C)(C2CC2)O1 (stereo not given) : -24.4
CCCCCC(C(O)C#N)C(O)(C(F)(F)F)C(F)(F)F (stereo not given) : 58.8
[C-]#[N+]C([N+]#[C-])=C(C)OCC : -5.2
CN(C)/C(N)=N\C(N)=Nc1cc2ccccc2c2ccccc12 : -0.2
C/C(CC(=O)Nc1ccc(C)c(C)c1)=N\NC(N)=S : 1.45
COc1ccc(NC(=O)CC(O)c2cccc(N)c2)cc1 (stereo not given) : 26.3
Cc1ccc(S(=O)(=O)CCCCS(=O)(=O)c2ccc(C)cc2)cc1 : -7.1
CC1(CCl)Nc2ccccc2C(=O)N1c1ccc(Cl)cc1 (stereo not given) : 8.95
CCOC(=O)c1cc(N)c(C(=O)OCC)cc1N : -1.3
Cc1cc(C)c2c(=O)cc(-c3cccc(Cl)c3)[nH]c2n1 : -25
Nc1cnc(Nc2cccc3ccccc23)o1 : -14.1
COc1ccc2c(c1)C1(C)CCCC(C)(C(N)=O)C1CC2 (stereo not given) : -8.05
CCN(CC)CCOCCO : -0.65
CCCC1([N+](=O)[O-])CCC(C)(O)C(/C(C)=N\O)C1 (stereo not given) : 25.5
CC1=CC2OC3C(OC(=O)c4ccccc4)C(OC(=O)c4ccccc4)C(C)(C2(COC(=O)c2ccccc2)CC1)C31CO1 (stereo not given) : 1.55
C=CCOCn1ccc(NC(=O)c2ccccc2)nc1=O : -37
CC(C)NCCO : -1.85

----------
test: NCI Yeast Anticancer Drug Screen. Data for the mlh1 rad18 strain (AID 175); conditions: S. cerevisiae mlh1 rad18 strain growth inhibition; at 50.0 µM; stronger effect = higher value
The panel holds about 79,000 compounds, 15% with a hit somewhere; the sample as a whole holds those more often. Where a SMILES comes first, the peptide text is derived from it. The star is where a group is joined. Boc = CC(C)(C)OC(=O)*
readout: growth inhibition (%)

CN(C)CCCC(O)c1cccc2ccccc12 (stereo not given) : 24.4
CSc1nc(NC2OC(COC(C)=O)C(OC(C)=O)C(OC(C)=O)C2OC(C)=O)c(N=C(C)C(C)=O)c(=O)n1C (stereo not given) : 6.95
NC(=O)c1ccccc1OC(=O)Nc1ccccc1 : 10.8
NC(CO)C(=O)NCCS(=O)(=O)O (stereo not given) : -6.95
C/C=C(/C=O)[C@@H]1CC2c3c(c4ccccc4n3[C@@H](O)C1)CCN2C (stereo not given in full) : -16.6
CCN(CC)CCCNc1c2c(nc3c(OC)cccc13)CCCC2 : -2.45
C=CCOc1cc2c(cc1C(C)c1ccc(OC)c(OC)c1)OCO2 (stereo not given) : 49.2
N#CC1(C#N)C(c2ccccc2)C=CC12OCCCO2 (stereo not given) : 23.2
O=C(O)CC1CCC(CC(=O)O)CC1 (stereo not given) : -1.65
c1ccc(COC2NCCN2Cc2ccccc2)cc1 (stereo not given) : -7.85
CC1(c2nc3ccccc3s2)CCCO1 (stereo not given) : 8.4
O=C(O)C(CS(=O)(=O)O)S(=O)(=O)O (stereo not given) : -10.5
O=C(c1ccccc1)C1C(C(=O)c2ccccc2)C1c1ccccc1 (stereo not given) : -16.1
N#CC(NC12CC3CC(CC(C3)C1)C2)c1ccc2c(c1)OCO2 (stereo not given) : -44.4
Cc1ccccc1C(=O)OCCBr : 2.9
CCN(CC)CCNCc1c[nH]c(=S)[nH]c1=O : -9.45
N#Cc1c(-c2ccco2)cc(-c2ccc(N)cc2)[nH]c1=O : 6.9
Cc1nc2n(c1C(N)=O)CCS2 : -10.7
CC(O)CNc1ncnc2c1cnn2C (stereo not given) : 12.8
Cc1ccsc1C(=O)C(CC(=O)c1cccs1)c1ccsc1 (stereo not given) : 16.4
N#Cc1nc(C2=C(Cl)c3ccccc3OC2)[nH]c1C#N : 31.8
Nc1c(Cl)ncnc1Nc1cccc(C(F)(F)F)c1 : 66.5
CNC(=O)CNC(=O)C(NC(=O)CNC(=O)C1CCCN1C(=O)C(C)NC(=O)C(NC(=O)OC(C)(C)C)C(C)C)C(C)C (stereo not given) (Boc-VAPGVG-NHMe; configuration not given here) : -18.2
Cc1nnc2c3nccnc3c(Cl)nn12 : 24.1
Cn1c(=O)c2c(n(C)c1=O)[n+]([O-])c([N+]1([O-])CCOCC1)n2C : 3.2
C/C(=C\N1CCCCC1)C(=O)c1ccc(F)cc1 : 24.7
CC1OC(OC2C(Oc3cc(O)c4c(c3)O[C@H](c3ccc(O)cc3)CC4=O)OC(CO)C(O)C2O)C(O)C(O)C1O (stereo not given in full) : -46.2
CC(CCC(=O)O)C1CCC2C3CCC4CC(OC=O)CCC4(C)C3CC(=O)C12C (stereo not given) : -13.9
CC(O)(C#Cc1ccccc1)c1nc2ccccc2s1 (stereo not given) : 4.35
S=C(NNC(=S)Nc1ccccc1)Nc1ccccc1 : -2.2
CCOC(=O)c1nnsc1NC(=O)Nc1ccc(Cl)cc1 : 10.6
COc1ccc(C2C(N)=NCC2c2ccccn2)cc1 (stereo not given) : -12.3
CC(C)(C)C(=O)CC(=O)C(F)(F)C(F)(F)C(F)(F)F.CC(C)(C)C(=O)CC(=O)C(F)(F)C(F)(F)C(F)(F)F.CC(C)(C)C(=O)CC(=O)C(F)(F)C(F)(F)C(F)(F)F.[Eu] : -1.2
C=C(C(=O)O)C1CC[C@@]2(C)CCC[C@@](C)(O)C2C1 (stereo not given in full) : 25.6
CC(C)CSCC1OC(n2cnc3c(N)nccc32)C(O)C1O (stereo not given) : -20.4
N#Cc1c(C(F)(F)F)cc(-c2cccs2)nc1SC(C(=O)Nc1c(F)cccc1F)c1ccccc1 (stereo not given) : 25.9
N#Cc1c(-c2ccccc2)cc(-c2ccc(Cl)cc2)[nH]c1=S : 4.65
COc1ccc(CCN=C(C)c2cc(Cl)cc(Cl)c2O)cc1OC : 13.9
O=C1CCCNn2c(nc3ncccc3c2=O)N1 : -41.1
CCCCCC/C=C\CCCCCCCCCC1=CC(=O)C=C(OC)C1=O : -11.7
CC(c1ccccc1O)C1CCCCC1N=O (stereo not given) : -4.15
COC(=O)C1CCC(/C(C#N)=C2/CCC(C(=O)OC)[N-]2)=N1.COC(=O)C1CCC(/C(C#N)=C2/CCC(C(=O)OC)[N-]2)=N1.[Cu+2] (stereo not given) : 11.2
CC[n+]1c(-c2ccccc2)c2cc(NCCCN)ccc2c2ccc(N)cc21 : 40.5
COc1ccc(NC(=O)COC(=O)c2cccc3c(=O)c4ccccc4[nH]c23)cc1 : 48.6
O=C(O)/C=C/c1ccc(Oc2ccccc2C(=O)O)o1 : -2.25
